- Test system: HepG2
- ASSAY_INFO: drug sensitivity score (DSS) for viability; higher = more toxic; extreme values may be limits of the assay
- RUN_PARAMETERS: 72 h
Counter-ions that a name gives are not always drawn.
METRIC: drug sensitivity score
Respond with the number and no other words.

# example entries with known answers
[
  {
    "MOLECULE": "CC(C)c1nnc(-c2ccc(-c3ccccc3)nc2)n1-c1cccc2nonc12 [ASP-2535]",
    "drug sensitivity score": 0
  },
  {
    "MOLECULE": "CC(C)C(=O)OC[C@H]1O[C@@H](n2ccc(N)nc2=O)[C@](C)(F)[C@@H]1OC(=O)C(C)C [mericitabine]",
    "drug sensitivity score": 0
  },
  {
    "MOLECULE": "C[C@@H]1C(=O)O[C@H]2C[C@@]34[C@H]5C[C@@H](C(C)(C)C)[C@]36[C@@H](OC(=O)[C@@H]6O)O[C@@]4(C(=O)O5)[C@]21O [Ginkgolide A]",
    "drug sensitivity score": 0
  },
  {
    "MOLECULE": "Cc1cccc(-c2n[nH]cc2-c2ccc(F)c(-c3cnn(CCO)c3)c2)n1",
    "drug sensitivity score": 0
  },
  {
    "MOLECULE": "CCCCOc1cc(C(=O)OCCN(CC)CC)ccc1N [oxybuprocaine]",
    "drug sensitivity score": 0
  },
  {
    "MOLECULE": "CNCCc1cnc[nH]1 [N-alpha-methylhistamine-dihydrochloride]",
    "drug sensitivity score": 0
  }
]

input: Which drug sensitivity score reading was recorded for the molecule CCOC(=O)c1c(C)n(C)c2ccc(O)cc12 [mecarbinate] ?
output: 0

input: Suppose we examine the molecule CCCOc1ccc(C(=O)OCCN(CC)CC)cc1N [proxymetacaine] ; what drug sensitivity score value has been reported?
output: 0

input: Name the reported drug sensitivity score value associated with the molecule Cc1cc2nc3c(=O)[nH]c(=O)nc-3n(C[C@H](O)[C@H](O)[C@H](O)CO)c2cc1C [riboflavin]
output: 0

input: Using the record for CC(C)(C)c1ccc(S(=O)(=O)NCc2ccc(C(=O)Nc3cccnc3)cc2)cc1 [STF-31] , report its drug sensitivity score.
output: 8.1

---

- Tested on: HepG2
- ASSAY_INFO: relative viability EC50 (midpoint between 100% and the lowest measured viability); higher = less toxic
- RUN_PARAMETERS: 72 h
Where a name gives a salt, the structure may show the parent alone.
Each entry below carries its recorded relative viability EC50.

[
  {
    "COMPOUND": "O=c1c2ccccc2nc2n1CCc1c-2[nH]c2ccccc12",
    "OBSERVED_MEASUREMENT": "> 10 µM"
  },
  {
    "COMPOUND": "O=C(c1ccccn1)c1cnn2c(-c3ccncc3)ccnc12",
    "OBSERVED_MEASUREMENT": "> 10 µM"
  },
  {
    "COMPOUND": "CC1(C)CC[C@]2(C(=O)O)CC[C@]3(C)C(=CC[C@@H]4[C@@]5(C)CC[C@H](O)C(C)(C)[C@@H]5CC[C@]43C)[C@@H]2C1",
    "OBSERVED_MEASUREMENT": "> 10 µM"
  }
]

input: Record request: relative viability EC50 value, item "CCOC(=O)[C@H](Cc1ccccc1)NC(=O)c1cc(Cl)c(OCCN2CCN(C)CC2)c(Cl)c1O"
output: 0.606 µM

input: Look at this compound and give its reported relative viability EC50. CC(Cc1cccc(C(F)(F)F)c1)NCCOC(=O)c1ccccc1 (stereo unspecified)
output: > 10 µM

input: What relative viability EC50 value was documented for this compound, CN[C@@H]1[C@H](O[C@H]2[C@H](O[C@H]3[C@H](O)[C@@H](O)[C@H](N=C(N)N)[C@@H](O)[C@@H]3N=C(N)N)O[C@@H](C)[C@]2(O)C=O)O[C@@H](CO)[C@H](O)[C@H]1O [STREPTOMYCIN SULFATE [5mM; 10% aq DMSO + 5mM ethanolamine]] ?
output: > 10 µM

---

- Test system: Caco-2
- ASSAY_INFO: cell viability relative to DMSO; higher = less toxic
- RUN_PARAMETERS: 72 h; 10 nM
cell viability values by entry
Numbers only here, please. The scale is %.

[
  {
    "SAMPLE_SMILES": "O=C1c2c(O)ccc(O)c2C(=O)c2c(NCCNCCO)ccc(NCCNCCO)c21",
    "cell viability / %": 96.5
  },
  {
    "SAMPLE_SMILES": "CN(C)CCN(C)CCc1ccc(Cl)c(Cl)c1",
    "cell viability / %": 102
  },
  {
    "SAMPLE_SMILES": "O=C(O)c1ccccc1NCCc1ccccc1",
    "cell viability / %": 97
  },
  {
    "SAMPLE_SMILES": "CC(C)(C)c1cc(O)c(C(C)(C)C)cc1O",
    "cell viability / %": 96.9
  },
  {
    "SAMPLE_SMILES": "COc1ccc(S(=O)(=O)N(C(C)=O)c2ccccc2/C=C/c2cc[n+]([O-])cc2)cc1",
    "cell viability / %": 89.6
  }
]

Kindly consider the entry below.
input: Which cell viability value belongs to "CCCc1c2oc(C(=O)O)cc(=O)c2cc2c(=O)cc(C(=O)O)n(CC)c12" ?
output: 99.8

---

Catalogue of drug sensitivity score values
- System: U2OS
- ASSAY_INFO: drug sensitivity score (DSS) for viability; higher = more toxic; extreme values may be limits of the assay
- RUN_PARAMETERS: 72 h
Give only the figure.

[
  {
    "MOLECULE": "O=C1CC(=O)c2c(Cl)c(Cl)c(Cl)c(Cl)c21 [TCID]",
    "drug sensitivity score": 0
  },
  {
    "MOLECULE": "CC(C)Oc1ccc2c(=O)c3cc(C(=O)O)ccc3oc2c1 [AH6809]",
    "drug sensitivity score": 0
  },
  {
    "MOLECULE": "C=C1/C(=C\\C=C2/CCC[C@]3(C)[C@@H]([C@H](C)CC[C@@H](O)C(C)C)CC[C@@H]23)C[C@@H](O)C[C@@H]1O [tacalcitol]",
    "drug sensitivity score": 0.3
  },
  {
    "MOLECULE": "CC1(C)S[C@@H]2[C@H](NC(=O)[C@H](N)c3ccccc3)C(=O)N2[C@H]1C(=O)O [ampicillin]",
    "drug sensitivity score": 0
  },
  {
    "MOLECULE": "C[C@@H](N[C@H]1CCCC[C@@H]1NC(=O)c1ccc(Cl)cc1)c1cccc2ccccc12 [Calhex-231]",
    "drug sensitivity score": 0.3
  },
  {
    "MOLECULE": "COc1ccc(/C=C2\\CCCN=C2c2cccnc2)c(OC)c1 [GTS21]",
    "drug sensitivity score": 0
  },
  {
    "MOLECULE": "C[C@]1(c2nc3c(C(N)=O)cccc3[nH]2)CCCN1 [veliparib]",
    "drug sensitivity score": 0
  },
  {
    "MOLECULE": "CCCc1nn(C)c2c(=O)[nH]c(-c3cc(S(=O)(=O)N4CCN(C)CC4)ccc3OCC)nc12 [sildenafil]",
    "drug sensitivity score": 0
  }
]

input: What does the data say about its drug sensitivity score? Entry: "CCC[C@@H]1CC2=CC(=O)CC[C@]2(C)[C@H]2CC[C@@]3(C)[C@@H](CC[C@@]3(O)CCC(=O)O)[C@H]12"
output: 0

input: // returns reported drug sensitivity score for input COc1cc(C(=O)NCc2ccc(OCCN(C)C)cc2)cc(OC)c1OC [trimethobenzamide]
output: 0

---

- System: U2OS
- ASSAY_INFO: cell viability relative to DMSO; higher = less toxic
- RUN_PARAMETERS: 72 h; 1000 nM
METRIC: cell viability (%)
Provide the reading as a plain figure in %.

Reference set (8 entries):
[
  {
    "COMPOUND": "O=[N+]([O-])c1cnc(Sc2nnc(O)n2-c2ccc3c(c2)OCCO3)s1",
    "cell viability (%)": 97.9
  },
  {
    "COMPOUND": "Oc1nc(O)c2cn[nH]c2n1",
    "cell viability (%)": 99.5
  },
  {
    "COMPOUND": "COCCN1CCC(C(=O)NO)(S(=O)(=O)c2ccc(Oc3ccc(OC(F)(F)F)cc3)cc2)CC1",
    "cell viability (%)": 100
  },
  {
    "COMPOUND": "C[S+]([O-])c1ccc(-c2nc(-c3ccc(F)cc3)c(-c3ccncc3)[nH]2)cc1 (stereo not given)",
    "cell viability (%)": 95.5
  },
  {
    "COMPOUND": "Cc1c(C(=O)NC2CCCCC2)sc2nc3ccc(N)cc3n12",
    "cell viability (%)": 98.1
  },
  {
    "COMPOUND": "CC(C(=O)O)c1ccc2c(c1)CC(=O)c1ccccc1S2 (stereo not given)",
    "cell viability (%)": 98.1
  },
  {
    "COMPOUND": "O=C(O)c1ccccc1NCCc1ccccc1",
    "cell viability (%)": 96.4
  },
  {
    "COMPOUND": "C[C@@H]1CN([C@H]2CC[C@](C#N)(c3ccc(F)cc3)CC2)CC[C@]1(C(=O)O)c1ccccc1",
    "cell viability (%)": 98
  }
]

input: Return reported cell viability; argument: "CC(=O)C(=Cc1cc(O)c(O)c([N+](=O)[O-])c1)C(C)=O"
output: 103
